EXPERIMENTAL TARGET: AHR (Mus musculus, UniProt P30561)
Sequence (P30561 whole entry P471L/N533S/M589L, form open): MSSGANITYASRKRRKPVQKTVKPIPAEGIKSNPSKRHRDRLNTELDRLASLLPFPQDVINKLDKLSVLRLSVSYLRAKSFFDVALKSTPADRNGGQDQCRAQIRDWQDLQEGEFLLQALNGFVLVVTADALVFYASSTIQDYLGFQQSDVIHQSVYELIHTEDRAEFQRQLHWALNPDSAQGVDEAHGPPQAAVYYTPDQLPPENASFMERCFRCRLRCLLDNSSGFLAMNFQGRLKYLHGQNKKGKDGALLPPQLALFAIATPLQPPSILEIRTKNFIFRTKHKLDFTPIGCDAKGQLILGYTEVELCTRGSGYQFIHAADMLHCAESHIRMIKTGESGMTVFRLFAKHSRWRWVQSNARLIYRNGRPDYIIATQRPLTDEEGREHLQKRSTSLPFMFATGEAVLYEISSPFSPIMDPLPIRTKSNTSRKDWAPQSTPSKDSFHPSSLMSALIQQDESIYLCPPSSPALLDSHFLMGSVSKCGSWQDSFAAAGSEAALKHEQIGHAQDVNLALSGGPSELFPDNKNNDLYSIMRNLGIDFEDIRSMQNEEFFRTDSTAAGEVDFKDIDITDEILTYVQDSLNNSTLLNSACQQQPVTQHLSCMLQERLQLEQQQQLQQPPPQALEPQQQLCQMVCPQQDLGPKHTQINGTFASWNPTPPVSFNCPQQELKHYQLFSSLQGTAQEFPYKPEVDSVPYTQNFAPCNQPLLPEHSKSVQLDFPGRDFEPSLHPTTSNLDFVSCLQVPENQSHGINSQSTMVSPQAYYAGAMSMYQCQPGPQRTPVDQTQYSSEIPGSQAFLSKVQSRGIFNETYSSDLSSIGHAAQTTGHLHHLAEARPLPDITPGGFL
PROTOCOL SUMMARY: In vitro assay 3: antagonism in mouse cell line (AHR transactivation, firefly luciferase reporter, kynurenic acid prestimulated)
Assay type: cell-based
CONDITION DESCRIPTION: Hepa 1c1c7 cells, 200 μM kynurenic acid, 20 hours, firefly luciferase reporter, read-out: AHR Antagonism Mouse IC50
Description: Examples were tested in selected biological assays one or more times. […] Firefly luciferase activity was determined by the SteadyGlo Luciferase Assay System (Promega, #E2550).
ATTRIBUTE MEASURED: IC50 (nM)

[P] COc1ccc(-c2nc3c4ccccc4nc(N[C@H](C)C(=O)NCCN(C)C)n3n2)cc1
[Q] O=C1NCCNC[C@H]1Nc1nc2c(Cl)cccc2c2nc(-c3cnn(C4CC4)c3)nn12
[R] O=C1NCCCC[C@H]1Nc1nc2c(Cl)cccc2c2nc(-c3cnn(C4CC4)c3)nn12
sort_by: IC50; order: ascending; scope: items listed above Could you list the labels in the order requested?
R, Q, P
(R: 0.99 nM, Q: 9.29 nM, P: 38.2 nM)

Source: patent US20230113037A1
